assay-system: human metabotropic glutamate 7 receptor (hmGlu7) (Homo sapiens)
Sequence (Q14831 35-922 isoform Q14831-2): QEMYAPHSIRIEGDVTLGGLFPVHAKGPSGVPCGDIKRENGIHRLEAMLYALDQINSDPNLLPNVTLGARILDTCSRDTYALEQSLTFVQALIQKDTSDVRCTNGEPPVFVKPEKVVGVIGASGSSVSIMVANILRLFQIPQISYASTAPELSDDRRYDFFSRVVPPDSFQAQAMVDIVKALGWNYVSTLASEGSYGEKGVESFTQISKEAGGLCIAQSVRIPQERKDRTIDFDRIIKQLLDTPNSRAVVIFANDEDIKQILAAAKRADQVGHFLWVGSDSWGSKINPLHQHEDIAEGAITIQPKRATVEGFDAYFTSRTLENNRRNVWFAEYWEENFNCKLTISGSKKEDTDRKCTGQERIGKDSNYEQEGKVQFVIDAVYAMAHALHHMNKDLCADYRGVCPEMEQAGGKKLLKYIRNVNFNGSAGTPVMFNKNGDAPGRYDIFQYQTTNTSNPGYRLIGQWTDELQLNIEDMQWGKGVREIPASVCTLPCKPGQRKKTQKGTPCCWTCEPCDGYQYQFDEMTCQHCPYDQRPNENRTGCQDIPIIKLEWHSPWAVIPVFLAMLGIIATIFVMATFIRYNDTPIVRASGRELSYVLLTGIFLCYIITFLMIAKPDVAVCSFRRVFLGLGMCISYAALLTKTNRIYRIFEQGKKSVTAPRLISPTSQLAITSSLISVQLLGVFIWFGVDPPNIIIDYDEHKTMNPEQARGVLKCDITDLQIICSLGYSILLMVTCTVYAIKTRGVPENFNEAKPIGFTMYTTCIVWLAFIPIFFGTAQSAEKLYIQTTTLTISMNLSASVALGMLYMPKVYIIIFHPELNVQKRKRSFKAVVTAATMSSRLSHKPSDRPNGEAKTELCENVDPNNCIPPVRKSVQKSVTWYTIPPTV
method: mGlu7 assay on HEK-expressing human mGlu7: fluorescent cell based Ca2+ mobilization assay (FLIPR), inhibition of EC80 L-AP4 response
cond: HEK-293 cells expressing hmGlu7; EC80 L-AP4 stimulation; mean of at least three independent experiments in duplicate; read-out: Ca2+ Flux (mean IC50)
measurement-type: IC50

Field: example entries. Status: answers known.
compound | measurement-type | result
COc1cnc(-n2ncc3c(C)n(-c4cccc(N5CCC5)c4)c(C)c3c2=O)nc1 [1-224] | IC50 | < 100 nM
COc1cccc(-n2c(C)c3cnn(-c4ncccn4)c(=O)c3c2C)c1F [1-234] | IC50 | 100 to 1000 nM
Cc1c2cnn(-c3ccccn3)c(=O)c2c(C)n1-c1cccc(OC2CC2)c1F [1-235] | IC50 | 100 to 1000 nM

State recorded IC50 for all listed compounds.
1. COc1ccc(-n2c(C)c3cnn(-c4ncccn4)c(=O)c3c2C)cn1 [1-241]
2. Cc1c2cnn(-c3ccccn3)c(=O)c2c(C)n1-c1cccc(C#N)c1 [1-54]
3. CCOc1cccc(-n2c(C)c3cnn(-c4ccccn4)c(=O)c3c2C)c1 [1-77]
4. Cc1c2cnn(-c3ccccn3)c(=O)c2c(C)n1-c1cccc2c1CCN2C [1-210]
5. Cc1c2cnn(-c3ccccn3)c(=O)c2c(C)n1-c1cccc(-c2ccccc2)c1 [1-76]

Output:
1. 1000 to 10000 nM
2. 1000 to 10000 nM
3. 100 to 1000 nM
4. 100 to 1000 nM
5. 100 to 1000 nM

Need IC50 for each of these compounds.
1. Cc1c2cnn(-c3ccccn3)c(=O)c2c(C)n1-c1cccc(OC(F)F)c1 [1-202]
2. Cc1c2cnn(-c3ncccn3)c(=O)c2c(C)n1-c1ccccc1 [1-58]
3. CCOC(=O)c1cccc(-n2c(C)c3cnn(-c4ccccn4)c(=O)c3c2C)c1 [1-133]
4. CCc1ccc(-n2c(C)c3cnn(-c4ccccn4)c(=O)c3c2C)cc1 [1-86]
5. Cc1c2cnn(-c3ccccc3)c(=O)c2c(C)n1-c1ccc(N(C)C)cc1 [1-23]
6. Cc1c2cnn(-c3ccccn3)c(=O)c2c(C)n1-c1cccc(OC(C)C)c1 [1-139]
7. Cc1c2cnn(-c3ccccn3)c(=O)c2c(C)n1-c1cccc(C(F)(F)F)c1 [1-53]

Output:
1. < 100 nM
2. 1000 to 10000 nM
3. 100 to 1000 nM
4. 100 to 1000 nM
5. 100 to 1000 nM
6. 100 to 1000 nM
7. 100 to 1000 nM

Working through the 2 compounds below one at a time, give IC50 for each.
1. Cc1c2cnn(-c3ccccc3)c(=O)c2c(C)n1-c1cccc(N2CCOCC2)c1 [1-33]
2. Cc1cnc(-n2ncc3c(C)n(-c4cccc(OC5CC5)c4C)c(C)c3c2=O)nc1 [1-205]

Output:
1. 100 to 1000 nM
2. < 100 nM

Can you give me IC50 for all of these, one by one?
1. Cc1c2cnn(-c3ccccc3)c(=O)c2c(C)n1-c1cccc(O)c1 [1-51]
2. Cc1cccc(-n2ncc3c(C)n(-c4cccc(N5CCOCC5)c4)c(C)c3c2=O)c1 [1-84]

Output:
1: 1000 to 10000 nM; 2: 1000 to 10000 nM
